System: NCI-H23
Test: NCI tumour cell line growth inhibition, 48 h
Calls of active or inactive are those of the source. No stated cut-off is given here; in the data, active = GI50 up to about 1.1 µM and inactive = higher.
METRIC: GI50

Some solved cases for reference:
molecule="CC(C)(C)OC(=O)NC(Cc1c[nH]cn1)C(=O)N1CCCC1C(N)=O (stereo not drawn)" test_value="> 100 µM (inactive)"
molecule="Cn1c(C2CC(C)(C)c3c2c2ccccc2n3C)cc2ccccc21 (stereo not drawn)" test_value="> 304 µM (inactive)"

QUERY: Entry COc1cc(C2SCC(=O)N2c2ccccc2Cl)cc(OC)c1OC (stereo not drawn) : reported GI50 = ?
RESULT: > 100 µM (inactive)

====

Tested on: LOX IMVI
Experiment: NCI tumour cell line growth inhibition, 48 h
Calls of active or inactive are those of the source. No stated cut-off is given here; in the data, active = GI50 up to about 1.1 µM and inactive = higher.
Outcomes you can answer with include only these: active, inactive

Before answering, review these 5 worked examples.
compound=CCCCCCNCCCNc1c2cc(OC)ccc2nc2cccc([N+](=O)[O-])c12 assay_target="LOX IMVI" class_assignment=active
compound="O=C1NC2(CCCCC2)C2CCCCC=C12 (stereo not drawn)" assay_target="LOX IMVI" class_assignment=inactive
compound=CC(C)OC(=O)C1=C2c3ncccc3C(=O)N2[C@@H](Cl)[C@@H](Cl)[C@@H]1Cl assay_target="LOX IMVI" class_assignment=inactive
compound=COc1cc(C(=O)C/C(CCC(=O)Nc2ccc(Cl)cc2C)=N/NC(=O)C(N)=O)ccc1O assay_target="LOX IMVI" class_assignment=inactive
compound=COc1cc(/C=C2\N=C(c3ccccc3)N(c3nc4c(OC)ccc(OC)c4s3)C2=O)cc(OC)c1OC assay_target="LOX IMVI" class_assignment=inactive

QUERY: Recorded call for [O-][N+]1=C(c2ccccc2)/C(=C2/C(c3ccccc3)=[N+]([O-])c3ccccc32)Cc2ccccc21 ?
RESULT: inactive

QUERY: Repeat for the following compound: O=S1(=O)c2cnccc2N=C(NCc2cccc3ccccc23)N1c1ccccc1
RESULT: inactive

QUERY: Repeat for the following compound: CC1OC(CO)(n2cnc3c(N)ncnc32)C(O)C1O (stereo not drawn)
RESULT: inactive

QUERY: Repeat for the following compound: O=C1COc2cc(NC(=S)Nc3ccccc3)ccc2N1
RESULT: inactive

QUERY: Repeat for the following compound: N=C(N)N/N=C/c1oc(-c2ccc(S(=O)(=O)O)o2)c(-c2ccc(S(=O)(=O)O)o2)c1[N+](=O)[O-]
RESULT: inactive

QUERY: Repeat for the following compound: CCOC(=O)C1=C(C)N(Cc2ccccc2)C2(O)C=CC(=O)C3C(=O)N(c4ccccc4)C(=O)C132 (stereo not drawn)
RESULT: inactive

QUERY: Repeat for the following compound: O=c1cc(NNc2ccccc2F)[nH]c(=O)[nH]1
RESULT: inactive

QUERY: Repeat for the following compound: O=S1(=O)[C@H](c2ccccc2)c2c(-c3ccccc3)sc(-c3ccccc3)c2[C@@H]1c1ccccc1
RESULT: inactive

====

Test system: U-251
Assay: NCI tumour cell line growth inhibition, 48 h
Active and inactive are the calls of the source. Rule as the data show it: active = GI50 up to about 1.1 µM and inactive = higher.
Outcomes you can answer with include only these: yes for active, no for inactive

Before answering, review these 8 worked examples.
compound=CC#COS(=O)(=O)c1ccc(C)cc1 class_assignment=no
compound="COc1cc(C2SCC(=O)N2c2ccccc2Cl)cc(OC)c1OC (stereo not given)" class_assignment=no
compound="COc1cc2c(cc1OC)CN1CCCc3cc(OC)c(OC)cc3C1C2 (stereo not given)" class_assignment=no
compound="N=C1CCCC1C(=S)SCCC(N)=O (stereo not given)" class_assignment=no
compound="C=C1C(=O)OC2CCCCC3OC3C12 (stereo not given)" class_assignment=no
compound="CN1CC2=C(N=C(S)NC2c2ccc(Cl)cc2)/C(=C/c2ccc(Cl)cc2)C1 (stereo not given)" class_assignment=no
compound=COc1ccc2c(c1)c1nn(CCN3CCCCC3)c3ccc4c(=O)n(CCN(C)C)c(=O)n2c4c13 class_assignment=yes
compound=O=C1C=C(N2CCCC2)C=C(N2CCCC2)C1 class_assignment=no

QUERY: Recorded call for Cc1c(C(=O)O)n2c(S)nnc2c2ccccc12 ?
RESULT: no

QUERY: Repeat for the following compound: O=C(O)c1ccc([N+](=O)[O-])c2cc3cnccc3nc12
RESULT: no
